biological target: UniProtKB P00772
Sequence (P00772 27-266): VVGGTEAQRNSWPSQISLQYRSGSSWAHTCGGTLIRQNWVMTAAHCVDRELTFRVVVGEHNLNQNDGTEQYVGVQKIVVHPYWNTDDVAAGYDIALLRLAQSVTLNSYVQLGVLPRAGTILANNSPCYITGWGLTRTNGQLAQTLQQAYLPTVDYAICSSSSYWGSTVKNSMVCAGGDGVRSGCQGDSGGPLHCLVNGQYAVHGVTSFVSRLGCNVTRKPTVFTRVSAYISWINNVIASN
EXPERIMENTAL_ENDPOINT: pIC50
As a rule, pIC50 stands for the negative log10 of the concentration, concentration in M.

-- ask Bench note: what pIC50 did C[C@H]1[C@H](C)CC[C@]2(C(=O)O)CC[C@]3(C)C(=CC[C@@H]4[C@@]5(C)CC[C@H](O)C(C)(C)[C@@H]5CC[C@]43C)[C@H]12 show?
-- reply 4.52

Values from paper PMC12277336
